# Tested on: UMC-11
# assay_notes: relative viability (nuclei count vs DMSO), 5 days (fraction); higher = more cells survive
# conditions_used: first compound 0.01 µM
result_type: relative viability
Answer as a number with no unit attached.

# annotated cases, reported relative viability shown
INSERT INTO assay_data (compound, tested_on, endpoint_result) VALUES
  ('Cc1cn(-c2cc(NC(=O)c3ccc(C)c(Nc4nccc(-c5cccnc5)n4)c3)cc(C(F)(F)F)c2)cn1 [Nilotinib] + N=C(N)NC(=N)NCCc1ccccc1 [Phenformin] (partner 250 µM)', 'UMC-11', 0.324),
  ('Cc1cn(-c2cc(NC(=O)c3ccc(C)c(Nc4nccc(-c5cccnc5)n4)c3)cc(C(F)(F)F)c2)cn1 [Nilotinib] + COc1cccc2cc(-c3nc([C@H]4CC[C@H](C(=O)O)CC4)n4ncnc(N)c34)[nH]c12 [OSI-027] (partner 0.5 µM)', 'UMC-11', 0.432),
  ('Cc1cn(-c2cc(NC(=O)c3ccc(C)c(Nc4nccc(-c5cccnc5)n4)c3)cc(C(F)(F)F)c2)cn1 [Nilotinib] + Cc1nc(NC(=O)N2CCC[C@H]2C(N)=O)sc1-c1ccnc(C(C)(C)C(F)(F)F)c1 [Alpelisib] (partner 2 µM)', 'UMC-11', 1.07);

Please look at the following compound next.
Quick one: relative viability for Cc1cn(-c2cc(NC(=O)c3ccc(C)c(Nc4nccc(-c5cccnc5)n4)c3)cc(C(F)(F)F)c2)cn1 [Nilotinib] + C[C@@H](Oc1cc(-c2cnn(C3CCNCC3)c2)cnc1N)c1c(Cl)ccc(F)c1Cl [Crizotinib] (partner 1 µM) ?
0.585

###

# System: LC-2-ad
# assay_notes: relative viability (nuclei count vs DMSO), 5 days (fraction); higher = more cells survive
# conditions_used: first compound 0.1 µM
result_type: relative viability
Answer as a number with no unit attached.

Quick one: relative viability for Cc1cn(-c2cc(NC(=O)c3ccc(C)c(Nc4nccc(-c5cccnc5)n4)c3)cc(C(F)(F)F)c2)cn1 [Nilotinib] + CC(C)C[C@H](NC(=O)[C@H](Cc1ccccc1)NC(=O)c1cnccn1)B(O)O [Bortezomib] (partner 0.002 µM) ?
0.527

Quick one: relative viability for Cc1cn(-c2cc(NC(=O)c3ccc(C)c(Nc4nccc(-c5cccnc5)n4)c3)cc(C(F)(F)F)c2)cn1 [Nilotinib] + CC1(C)CCC(c2ccc(Cl)cc2)=C(CN2CCN(c3ccc(C(=O)NS(=O)(=O)c4ccc(N[C@H](CCN5CCOCC5)CSc5ccccc5)c(S(=O)(=O)C(F)(F)F)c4)cc3)CC2)C1 [Navitoclax] (partner 0.5 µM) ?
0.365

Quick one: relative viability for Cc1cn(-c2cc(NC(=O)c3ccc(C)c(Nc4nccc(-c5cccnc5)n4)c3)cc(C(F)(F)F)c2)cn1 [Nilotinib] + Nc1nc2[nH]cc(CCc3ccc(C(=O)N[C@@H](CCC(=O)O)C(=O)O)cc3)c2c(=O)[nH]1 [Pemetrexed] (partner 0.2 µM) ?
0.248

Quick one: relative viability for Cc1cn(-c2cc(NC(=O)c3ccc(C)c(Nc4nccc(-c5cccnc5)n4)c3)cc(C(F)(F)F)c2)cn1 [Nilotinib] + C[C@@H](Oc1cc(-c2cnn(C3CCNCC3)c2)cnc1N)c1c(Cl)ccc(F)c1Cl [Crizotinib] (partner 1 µM) ?
0.522

Quick one: relative viability for Cc1cn(-c2cc(NC(=O)c3ccc(C)c(Nc4nccc(-c5cccnc5)n4)c3)cc(C(F)(F)F)c2)cn1 [Nilotinib] + CC(=O)Nc1cccc(-n2c(=O)n(C3CC3)c(=O)c3c(Nc4ccc(I)cc4F)n(C)c(=O)c(C)c32)c1 [Trametinib] (partner 0.02 µM) ?
0.517

###

# Test system: A549
# assay_notes: relative viability (nuclei count vs DMSO), 5 days (fraction); higher = more cells survive
# conditions_used: first compound 20 µM
result_type: relative viability
Answer as a number with no unit attached.

INSERT INTO measurements (molecule, endpoint_result) VALUES
  ('Cc1csc(=NC2CCCCC2)n1/N=C/c1ccc(O)c(O)c1O [MIM1] + COc1cc2c(Oc3ccc(NC(=O)C4(C(=O)Nc5ccc(F)cc5)CC4)cc3F)ccnc2cc1OCCCN1CCOCC1 [Foretinib] (partner 0.25 µM)', 0.144),
  ('Cc1csc(=NC2CCCCC2)n1/N=C/c1ccc(O)c(O)c1O [MIM1] + Nc1ncn([C@H]2C[C@H](O)[C@@H](CO)O2)c(=O)n1 [Decitabine] (partner 2 µM)', 0.0686);

Please look at the following molecule next.
Quick one: relative viability for Cc1csc(=NC2CCCCC2)n1/N=C/c1ccc(O)c(O)c1O [MIM1] + CC1(C)CCC(c2ccc(Cl)cc2)=C(CN2CCN(c3ccc(C(=O)NS(=O)(=O)c4ccc(N[C@H](CCN5CCOCC5)CSc5ccccc5)c(S(=O)(=O)C(F)(F)F)c4)cc3)CC2)C1 [Navitoclax] (partner 0.5 µM) ?
0.0781

###

# Test system: EMC-BAC-2
# assay_notes: relative viability (nuclei count vs DMSO), 5 days (fraction); higher = more cells survive
# conditions_used: first compound 0.2 µM
Hi all, reminder that labels come from relative viability, split as Low: < 0.5; Medium: ≥ 0.5 and < 0.9; High: ≥ 0.9

Some solved entries appear below for comparison.
INSERT INTO assay_data (compound, label) VALUES
  ('CCNC(=O)c1noc(-c2cc(C(C)C)c(O)cc2O)c1-c1ccc(CN2CCOCC2)cc1 [Luminespib] + NC(=O)Nc1cc(-c2cccc(F)c2)sc1C(=O)N[C@H]1CCCNC1 [AZD7762] (partner 0.2 µM)', 'Low'),
  ('Cc1csc(=NC2CCCCC2)n1/N=C/c1ccc(O)c(O)c1O [MIM1] + Nc1ncn([C@H]2C[C@H](O)[C@@H](CO)O2)c(=O)n1 [Decitabine] (partner 2 µM)', 'High'),
  ('CN1CCN(CCOc2cc(OC3CCOCC3)c3c(Nc4c(Cl)ccc5c4OCO5)ncnc3c2)CC1 [Saracatinib] + CS(=O)(=O)CCNCc1ccc(-c2ccc3ncnc(Nc4ccc(OCc5cccc(F)c5)c(Cl)c4)c3c2)o1 [Lapatinib] (partner 2 µM)', 'Medium'),
  ('Cc1csc(=NC2CCCCC2)n1/N=C/c1ccc(O)c(O)c1O [MIM1] + NC(=O)Nc1cc(-c2cccc(F)c2)sc1C(=O)N[C@H]1CCCNC1 [AZD7762] (partner 0.2 µM)', 'High');

Sort into band: CCNC(=O)c1noc(-c2cc(C(C)C)c(O)cc2O)c1-c1ccc(CN2CCOCC2)cc1 [Luminespib] + CS(=O)(=O)N1CCN(Cc2cc3nc(-c4cccc5[nH]ncc45)nc(N4CCOCC4)c3s2)CC1 [Pictilisib] (partner 1 µM)
Low

Sort into band: CCNC(=O)c1noc(-c2cc(C(C)C)c(O)cc2O)c1-c1ccc(CN2CCOCC2)cc1 [Luminespib] + Cc1nc(Nc2ncc(C(=O)Nc3c(C)cccc3Cl)s2)cc(N2CCN(CCO)CC2)n1 [Dasatinib] (partner 0.075 µM)
Low

Sort into band: Cc1csc(=NC2CCCCC2)n1/N=C/c1ccc(O)c(O)c1O [MIM1] + CS(=O)(=O)N1CCN(Cc2cc3nc(-c4cccc5[nH]ncc45)nc(N4CCOCC4)c3s2)CC1 [Pictilisib] (partner 1 µM)
Medium

Sort into band: CCNC(=O)c1noc(-c2cc(C(C)C)c(O)cc2O)c1-c1ccc(CN2CCOCC2)cc1 [Luminespib] + C[C@@H](Oc1cc(-c2cnn(C3CCNCC3)c2)cnc1N)c1c(Cl)ccc(F)c1Cl [Crizotinib] (partner 1 µM)
Medium

###

# Test system: HOP-62
# assay_notes: relative viability (nuclei count vs DMSO), 5 days (fraction); higher = more cells survive
# conditions_used: first compound 20 µM
Let's look at some molecules and their measured relative viability.
Answer as a number with no unit attached.

# annotated cases, reported relative viability shown
INSERT INTO assay_data (molecule, result_type, endpoint_result) VALUES
  ('Cc1csc(=NC2CCCCC2)n1/N=C/c1ccc(O)c(O)c1O [MIM1] + O=C(CCCCCCC(=O)Nc1ccccc1)NO [Vorinostat] (partner 1 µM)', 'relative viability', 0.0827),
  ('Cc1csc(=NC2CCCCC2)n1/N=C/c1ccc(O)c(O)c1O [MIM1] + Nc1ncn([C@H]2C[C@H](O)[C@@H](CO)O2)c(=O)n1 [Decitabine] (partner 2 µM)', 'relative viability', 0.147),
  ('Cc1csc(=NC2CCCCC2)n1/N=C/c1ccc(O)c(O)c1O [MIM1] + CCNC(=O)c1noc(-c2cc(C(C)C)c(O)cc2O)c1-c1ccc(CN2CCOCC2)cc1 [Luminespib] (partner 0.01 µM)', 'relative viability', 0.301);

Please look at the following molecule next.
Quick one: relative viability for Cc1csc(=NC2CCCCC2)n1/N=C/c1ccc(O)c(O)c1O [MIM1] + COc1cc2c(Oc3ccc(NC(=O)C4(C(=O)Nc5ccc(F)cc5)CC4)cc3F)ccnc2cc1OCCCN1CCOCC1 [Foretinib] (partner 0.25 µM) ?
0.278
